assay remarks: Solubility (thermodynamic, shake-flask)
Assay type: physicochemical
condition description: thermodynamic from solid; aqueous phosphate buffer (pH 7.4), 24 hours at 25° C.
Listed molecules paired with reported log10 solubility at 24 h
quantity name: log10 solubility at 24 h (log10 of the value in µM)

>>> value_measured("C=CC(=O)N1C[C@@H](CO)[C@H](Nc2nnc(-c3ccc(C(F)(F)F)cc3)c3cccnc23)C1 [Example 26]")
2.24
>>> value_measured("C=CC(=O)N1C[C@@H](COC)[C@H](Nc2nnc(-c3ccc(C(F)(F)F)cc3)c3ccccc23)C1 [Example 28]")
2.23
>>> value_measured("C=CC(=O)N1C[C@H](F)[C@H](Nc2ncc(-c3ccc(C(F)(F)F)cc3)c3nccnc23)C1 [Example 43]")
1.20
>>> value_measured("C=CC(=O)N1C[C@@H](Nc2nnc(-c3ccc(C(F)(F)F)cc3)c3ccccc23)C[C@@H]1CO [Example 47]")
1.11
>>> value_measured("C=CC(=O)N1CC(C#N)[C@@H](Nc2nnc(-c3ccc(C(F)(F)F)cc3)c3ccccc23)C1 (single isomer, unassigned; enantiomer 1) [Example 30]")
2.28
>>> value_measured("C=C(F)C(=O)N1C[C@H](F)[C@H](Nc2nnc(-c3ccc(C(F)(F)F)cc3)c3ncccc23)C1 [Example 5]")
2.39
>>> value_measured("C=CC(=O)N1C[C@H](F)[C@H](Nc2ncc(-c3ccc(C(F)(F)F)cc3)c3ncccc23)C1 [Example 44]")
0.48
>>> value_measured("C=CS(=O)(=O)N1CC[C@H](Nc2nnc(-c3ccc(C(F)(F)F)cc3)c3ccccc23)C1 [Example 21]")
1.53
>>> value_measured("C=CC(=O)N1C[C@@H](F)[C@H](Nc2nnc(-c3ccc(C(F)(F)F)cc3)c3ncccc23)C1 [Example 3]")
1.00
>>> value_measured("C=CC(=O)N[C@H]1CCN(c2nc(-c3ccc(C(F)(F)F)cc3)nc3ccccc23)C1 (racemic) [Comparative Example D, reference compound]")
-0.22
>>> value_measured("C=CC(=O)N1CC[C@H](Nc2nnc(-c3ccc(C(F)(F)F)cn3)c3cccnc23)C1 [Example 16]")
2.06
>>> value_measured("C=CC(=O)N1C[C@H](F)[C@H](Nc2nnc(-c3ccc(C(F)(F)F)cc3)c3ccccc23)C1 [Example 10]")
1.83
>>> value_measured("C=CC(=O)N1CC[C@H](Nc2nnc(-c3ccc(C(F)(F)F)cc3)c3ncccc23)C1 [Example 7]")
0.93
>>> value_measured("C=CC(=O)N1C[C@H](F)[C@H](Nc2nnc(-c3ccc(C(F)(F)F)cc3)c3ncccc23)C1 [Example 1]")
2.32
>>> value_measured("C=CC(=O)N1CC[C@H](Nc2ncc(-c3ccc(C(F)(F)F)cc3)c3nccnc23)C1 [Example 45]")
1.13
>>> value_measured("C=CC(=O)N1C[C@@H](CO)[C@H](Nc2ncc(-c3ccc(C(F)(F)F)cc3)c3ncccc23)C1 [Example 24]")
1.51
>>> value_measured("C=CC(=O)NC1(CNc2nnc(-c3ccc(C(F)(F)F)cc3)c3ccccc23)CC1 [Example 40]")
0.48
>>> value_measured("CC#CC(=O)N1CC[C@H](Nc2nnc(-c3ccc(C(F)(F)F)cc3)c3ccccc23)C1 [Example 20]")
1.52
>>> value_measured("C=CC(=O)N1CC[C@H](Nc2ncc(-c3ccc(C(F)(F)F)cc3)c3ncccc23)C1 [Example 39]")
1.30
>>> value_measured("C=CC(=O)N1CC[C@H](Nc2ncc(-c3ccc(C(F)(F)F)cn3)c3ncccc23)C1 [Example 38]")
2.28
>>> value_measured("C=CC(=O)N1C[C@H](F)[C@H](Nc2ncc(-c3ccc(C(F)(F)F)cn3)c3ncccc23)C1 [Example 36]")
1.91
>>> value_measured("C=CC(=O)N1C[C@@H](F)[C@H](Nc2nnc(-c3ccc(C(F)(F)F)cc3)c3cccnc23)C1 [Example 4]")
2.36
>>> value_measured("C=CC(=O)N1C[C@H](CO)[C@H](Nc2nnc(-c3ccc(C(F)(F)F)cc3)c3ccccc23)C1 [Example 49]")
2.22
>>> value_measured("C=CC(=O)N1C[C@@H](F)[C@H](Nc2nnc(-c3ccc(C(F)(F)F)cc3)c3ccccc23)C1 [Example 11]")
0.95
>>> value_measured("C=CC(=O)N1C[C@@H](CO)[C@H](Nc2ncc(-c3ccc(C(F)(F)F)cn3)c3ncccc23)C1 [Example 37]")
2.19
>>> value_measured("C=CC(=O)N1C[C@@H](CO)[C@H](Nc2ncc(-c3ccc(C(F)(F)F)cc3)c3nccnc23)C1 [Example 27]")
1.80
>>> value_measured("C=CC(=O)N1C[C@H](O)[C@H](Nc2ncc(-c3ccc(C(F)(F)F)cn3)c3ncccc23)C1 [Example 35]")
2.90
>>> value_measured("C=C(F)C(=O)N1C[C@H](F)[C@H](Nc2nnc(-c3ccc(C(F)(F)F)cc3)c3cccnc23)C1 [Example 6]")
2.20
>>> value_measured("C=CC(=O)N1CC[C@H](Nc2nnc(-c3ccc(C(F)(F)F)cc3)c3cccc(F)c23)C1 [Example 13]")
1.60

// provenance: patent US20240116926A1
